Target: PB2 (Influenza A virus, UniProt P03428)
Sequence (P03428 whole entry, looked up): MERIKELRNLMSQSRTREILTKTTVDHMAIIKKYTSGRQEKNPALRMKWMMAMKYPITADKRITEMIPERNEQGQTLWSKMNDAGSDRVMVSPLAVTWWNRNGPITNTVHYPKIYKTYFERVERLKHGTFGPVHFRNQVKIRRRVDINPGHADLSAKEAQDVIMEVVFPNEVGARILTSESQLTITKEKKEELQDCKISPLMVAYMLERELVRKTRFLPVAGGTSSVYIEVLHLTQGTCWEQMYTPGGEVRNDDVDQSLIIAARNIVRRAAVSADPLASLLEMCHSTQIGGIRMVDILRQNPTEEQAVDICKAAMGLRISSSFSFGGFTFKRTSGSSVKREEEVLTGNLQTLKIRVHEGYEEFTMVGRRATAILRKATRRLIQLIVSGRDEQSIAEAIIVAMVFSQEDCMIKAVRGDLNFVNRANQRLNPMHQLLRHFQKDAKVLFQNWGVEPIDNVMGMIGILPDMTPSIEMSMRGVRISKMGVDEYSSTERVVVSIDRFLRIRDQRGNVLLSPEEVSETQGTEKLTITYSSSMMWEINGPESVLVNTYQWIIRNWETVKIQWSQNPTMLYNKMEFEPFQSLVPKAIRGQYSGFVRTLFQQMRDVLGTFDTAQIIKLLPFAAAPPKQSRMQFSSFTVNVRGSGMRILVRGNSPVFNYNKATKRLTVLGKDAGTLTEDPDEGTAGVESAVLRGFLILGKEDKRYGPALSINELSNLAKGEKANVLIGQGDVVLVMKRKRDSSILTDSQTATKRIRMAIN
Test: biochemical
pEC50: −log10 of the molar value.
property: pEC50

Example results:
[
  {
    "compound": "CCCCCOCCOCC(=O)N[C@@H]1CCC[C@H](Nc2nc(-c3c[nH]c4ncc(F)cc34)ncc2F)C1",
    "pEC50": "4.00 to 4.30"
  },
  {
    "compound": "O=C(NCC(=O)N1CCOCC1)OCc1ccnc(C(=O)N[C@H]2CCC[C@@H](Nc3nc(-c4c[nH]c5ncc(F)cc45)ncc3F)C2)c1",
    "pEC50": "4.60 to 5.30"
  },
  {
    "compound": "CCOCCOCCOCCNC(=O)N(CCCc1ccccc1)[C@@H]1CCC[C@H](Nc2nc(-c3c[nH]c4ncc(F)cc34)ncc2F)C1",
    "pEC50": "4.00 to 4.30"
  },
  {
    "compound": "CCCCCOCCOCCN(Cc1ccccc1)C(=O)N[C@@H]1CCC[C@H](Nc2nc(-c3c[nH]c4ncc(F)cc34)ncc2F)C1",
    "pEC50": "< 4.00"
  },
  {
    "compound": "O=C(N[C@@H]1CCC[C@H](Nc2nc(-c3c[nH]c4ncc(F)cc34)ncc2F)C1)c1cc(CCCO)ccn1",
    "pEC50": "> 5.30"
  }
]

Lookup: So what pEC50 did CCOCCOCCOCCNC(=O)N[C@@H]1CCC[C@H](Nc2nc(-c3c[nH]c4ncc(F)cc34)ncc2F)C1 [Compound A168] get with PB2 (Influenza A virus, UniProt P03428)?
Found: 4.60 to 5.30

Lookup: // fetch PB2 (Influenza A virus, UniProt P03428) pEC50 for Cc1cc(C(=O)N[C@H]2CCC[C@@H](Nc3nc(-c4c[nH]c5ncc(F)cc45)ncc3F)C2)ccn1
Found: 4.60 to 5.30

###

Target: PB2 CDlp7007 H3N2 (Influenza A virus, UniProt P31345)
Sequence (P31345 whole entry, looked up): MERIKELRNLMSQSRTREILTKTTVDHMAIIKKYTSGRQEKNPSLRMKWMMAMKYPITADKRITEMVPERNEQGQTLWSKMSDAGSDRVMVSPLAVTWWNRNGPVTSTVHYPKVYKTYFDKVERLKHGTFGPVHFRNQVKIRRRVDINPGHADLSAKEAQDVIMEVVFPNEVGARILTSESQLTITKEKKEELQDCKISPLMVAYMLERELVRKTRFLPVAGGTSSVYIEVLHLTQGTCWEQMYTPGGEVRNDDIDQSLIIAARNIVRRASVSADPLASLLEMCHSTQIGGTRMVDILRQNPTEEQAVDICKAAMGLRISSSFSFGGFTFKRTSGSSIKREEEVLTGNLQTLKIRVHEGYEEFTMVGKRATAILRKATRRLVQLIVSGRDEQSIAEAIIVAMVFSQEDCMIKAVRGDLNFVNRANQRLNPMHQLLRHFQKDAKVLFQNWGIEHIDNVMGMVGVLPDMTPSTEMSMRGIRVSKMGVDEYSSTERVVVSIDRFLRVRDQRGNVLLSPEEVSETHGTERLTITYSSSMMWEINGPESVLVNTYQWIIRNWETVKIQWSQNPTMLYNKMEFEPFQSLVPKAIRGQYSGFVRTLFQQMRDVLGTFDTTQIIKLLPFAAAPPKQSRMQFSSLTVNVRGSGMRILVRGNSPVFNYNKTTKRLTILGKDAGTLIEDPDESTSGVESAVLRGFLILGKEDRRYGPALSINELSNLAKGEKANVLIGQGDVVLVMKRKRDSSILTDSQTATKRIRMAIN
This listing pairs molecules with measured IC50.

Lookup: Would you mind telling me what IC50 value was observed for O=C(COCCOCCOCCO)N1CCC[C@H](Nc2nc(-c3c[nH]c4ncc(F)cc34)ncc2F)C1 ?
Found: 5 to 25 µM

Lookup: Requested field: IC50. Item: CCOCCOCCOCCNC(=O)N[C@@H]1CCC[C@H](Nc2nc(-c3c[nH]c4ncc(F)cc34)ncc2F)C1
Found: 25 to 50 µM

Lookup: Query (molecule): CCOCCOCCCCCN(C)C(=O)N[C@@H]1CCC[C@H](Nc2nc(-c3c[nH]c4ncc(F)cc34)ncc2F)C1 ; field requested: IC50
Found: 50 to 100 µM

Lookup: What does the record list as IC50 for CCOCCOCCOCC(=O)N1CCC[C@H](Nc2nc(-c3c[nH]c4ncc(F)cc34)ncc2F)C1 ?
Found: 5 to 25 µM

###

Molecular target: PB2 (Influenza A virus, UniProt P03428)
Assay: biochemical
pEC50: −log10 of the molar value.
property: pEC50

Recorded results for 4 compounds are shown here.
[
  {
    "compound": "CCCCCCCOCCCN(C)C(=O)N[C@H]1CCC[C@@H](Nc2nc(-c3c[nH]c4ncc(F)cc34)ncc2F)C1 [Compound A206]",
    "property": "pEC50",
    "assay-result": "< 4.00"
  },
  {
    "compound": "CN(CCOCCOCCOCCC(=O)O)C(=O)N[C@H]1CCC[C@@H](Nc2nc(-c3c[nH]c4ncc(F)cc34)ncc2F)C1 [Compound A171]",
    "property": "pEC50",
    "assay-result": "4.30 to 4.60"
  },
  {
    "compound": "CCOCCOCCCCCOC(=O)N[C@@H]1CCC[C@H](Nc2nc(-c3c[nH]c4ncc(F)cc34)ncc2F)C1 [Compound A281]",
    "property": "pEC50",
    "assay-result": "< 4.00"
  },
  {
    "compound": "CCOCCC(=O)N(CC)Cc1ccnc(C(=O)N[C@@H]2CCC[C@H](Nc3nc(-c4c[nH]c5ncc(F)cc45)ncc3F)C2)c1 [Compound A69]",
    "property": "pEC50",
    "assay-result": "> 5.30"
  }
]

Moving on to the next compound.
Lookup: What does the record list as pEC50 for CCOCc1cccc(COCc2ccnc(C(=O)N[C@H]3CCC[C@@H](Nc4nc(-c5c[nH]c6ncc(F)cc56)ncc4F)C3)c2)c1 [Compound A71] ?
Found: < 4.00

###

Target: PB2 (Influenza A virus, UniProt P03428)
Experiment: biochemical
pEC50: −log10 of the molar value.
In this section, each of the compounds is paired with its reported pEC50.

Below, each entry is followed by its recorded pEC50 result.
[
  {
    "compound": "CCNC(=O)C(NC(=O)OCc1ccnc(C(=O)N[C@H]2CCC[C@@H](Nc3nc(-c4c[nH]c5ncc(F)cc45)ncc3F)C2)c1)C(C)(C)C (stereo partly shown) [Compound A149]",
    "pEC50": "< 4.00"
  },
  {
    "compound": "CN(CCCCCOCCOCc1ccccn1)C(=O)N[C@@H]1CCC[C@H](Nc2nc(-c3c[nH]c4ncc(F)cc34)ncc2F)C1",
    "pEC50": "4.00 to 4.30"
  },
  {
    "compound": "O=C(NCc1cccc(Oc2ccccc2)c1)OCc1ccnc(C(=O)N[C@H]2CCC[C@@H](Nc3nc(-c4c[nH]c5ncc(F)cc45)ncc3F)C2)c1",
    "pEC50": "< 4.00"
  },
  {
    "compound": "CCc1cccc(OCCOCc2ccnc(C(=O)N[C@H]3CCC[C@@H](Nc4nc(-c5c[nH]c6ncc(F)cc56)ncc4F)C3)c2)c1",
    "pEC50": "4.30 to 4.60"
  },
  {
    "compound": "CCOCCc1ccnc(C(=O)N[C@H]2CCC[C@@H](Nc3nc(-c4c[nH]c5ncc(F)cc45)ncc3F)C2)c1",
    "pEC50": "4.30 to 4.60"
  },
  {
    "compound": "CCOCCOCCCc1ccnc(C(=O)N[C@H]2CCC[C@@H](Nc3nc(-c4c[nH]c5ncc(F)cc45)ncc3F)C2)c1 [Compound A288]",
    "pEC50": "4.60 to 5.30"
  }
]

Lookup: What pEC50 value was documented for this compound, COCCOCc1ccnc(C(=O)N[C@@H]2CCC[C@H](Nc3nc(-c4c[nH]c5ncc(F)cc45)ncc3F)C2)c1 ?
Found: 4.30 to 4.60

Lookup: # get_value(readout='pEC50', item= CCOCCOCCOCCNC(=O)N[C@@H]1CCC[C@H](Nc2nc(-c3c[nH]c4ncc(F)cc34)ncc2F)C1 [Compound A164] )
Found: 4.30 to 4.60

###

Molecular target: PB2 CDlp7026 H1N1 (Influenza A virus)
Sequence (P03428 whole entry, looked up): as the sequence (P03428 whole entry, looked up) above
pIC50: −log10 of the molar value.
property: pIC50

Lookup: I'd like to know its pIC50. The compound in question is CCNC(=O)OCc1ccnc(C(=O)N[C@@H]2CCC[C@H](Nc3nc(-c4c[nH]c5ncc(F)cc45)ncc3F)C2)c1
Found: 4.60 to 5.30

###

Overview of recorded pEC50 for various compounds
Molecular target: PB2 (Influenza A virus)
Assay: biochemical
pEC50: −log10 of the molar value.

Example compounds with recorded pEC50:
[
  {
    "compound": "CCOCCCCCOCC(=O)N[C@@H]1CCC[C@H](Nc2nc(-c3c[nH]c4ncc(F)cc34)ncc2F)C1 [Compound A274]",
    "assay-result": "< 4.00"
  },
  {
    "compound": "O=C(NCc1cccc(C(=O)O)c1)OCc1ccnc(C(=O)N[C@@H]2CCC[C@H](Nc3nc(-c4c[nH]c5ncc(F)cc45)ncc3F)C2)c1 [Compound A98]",
    "assay-result": "> 5.30"
  },
  {
    "compound": "CCOCCOCCOCCNC(=O)N[C@H]1CCC[C@@H](Nc2nc(-c3ccnc(Cl)c3)ncc2F)C1 [Compound A197]",
    "assay-result": "< 4.00"
  },
  {
    "compound": "O=C(N[C@H]1CCC[C@@H](Nc2nc(-c3c[nH]c4ncc(F)cc34)ncc2F)C1)c1cc(COCCCCCOCc2ccncc2)ccn1 [Compound A103]",
    "assay-result": "< 4.00"
  },
  {
    "compound": "CCCOCCCCCc1ccnc(C(=O)N[C@@H]2CCC[C@H](Nc3nc(-c4c[nH]c5ncc(F)cc45)ncc3F)C2)c1 [Compound A28]",
    "assay-result": "< 4.00"
  },
  {
    "compound": "O=C(O)CC(=O)N1CCC[C@H](Nc2nc(-c3c[nH]c4ncc(F)cc34)ncc2F)C1 [Compound C10]",
    "assay-result": "> 5.30"
  }
]

Moving on to the next compound.
Lookup: Form field - read-out: pEC50; system: PB2 (Influenza A virus); submitted item: CN(CCOCCOCCOCCO)C(=O)N[C@H]1CCC[C@@H](Nc2nc(-c3c[nH]c4ncc(F)cc34)ncc2F)C1 [Compound A191]
Found: 4.30 to 4.60
